test.method.notes: pharmacokinetics in subjects undergoing CABG surgery with hypothermic CPB
Format: in vivo, human
condition.label: human, whole blood, other: directly into the bypass oxygenator, 2.7 g PFC/kg, read-out: Cmax (maximum whole blood concentration)
quantity: Cmax (µg/mL)

1: FC(F)(F)C(F)(F)C(F)(F)C(F)(F)C(F)(F)C(F)(F)C(F)(F)C(F)(F)Br [PFOB, perfluorooctyl bromide]
2: FC(F)(F)C(F)(F)C(F)(F)C(F)(F)C(F)(F)C(F)(F)C(F)(F)C(F)(F)C(F)(F)C(F)(F)Br [PFDB, perfluorodecyl bromide]
Given the two records 1 and 2 , choose the one whose Cmax value is lower. # answer = label of selected item
2
